# Procedure Text: Absorption and fluorescence maxima of the dye in water
# Assay type: physicochemical
# Run Conditions: H2O
Structures can show the parent of a compound that is named as a salt.
Observed Property: λMax.absorption (H2 O) (nm)

INSERT INTO assay_data (molecule, readout_number) VALUES
  ('CC1(C)C(=CC=CC=CC=CC2=[N+](CCCCS(=O)(=O)[O-])c3ccc(C(=O)NC4OC(CO)C(OC5OC(CO)C(OC6OC(CO)C(O)C(O)C6O)C(O)C5O)C(O)C4O)cc3C2(C)C)N(CCCCS(=O)(=O)O)c2ccccc21 (centres unmarked)', 748),
  ('CC1(C)C(=CC=CC=CC=CC2=[N+](CCCCS(=O)(=O)[O-])c3ccc(C(=O)N[C@H]4C(O)O[C@H](CO)[C@@H](O)[C@@H]4OS(=O)(=O)O)cc3C2(C)C)N(CCCCS(=O)(=O)O)c2ccccc21 (some centres unmarked) [Example 2, disodium salt]', 745),
  ('CC1(C)C(=CC=CC=CC=CC2=[N+](CCCCS(=O)(=O)[O-])c3ccc(C(=O)NCC(COS(=O)(=O)O)OS(=O)(=O)O)cc3C2(C)C)N(CCCCS(=O)(=O)O)c2ccccc21 (centres unmarked) [Example 1, trisodium salt]', 746),
  ('CC1(C)C(=CC=CC=CC=CC2=[N+](CCCCS(=O)(=O)[O-])c3ccc(C(=O)N[C@H]4C(O)O[C@H](CO)[C@@H](O)[C@@H]4OS(=O)(=O)O)cc3C2(C)C)N(CCCCS(=O)(=O)O)c2ccc(C(=O)N[C@H]3C(O)O[C@H](CO)[C@@H](O)[C@@H]3OS(=O)(=O)O)cc21 (some centres unmarked) [Example 3, trisodium salt]', 754),
  ('CC1(C)C(=CC=CC=CC=CC2=[N+](CCCCS(=O)(=O)[O-])c3ccc(C(=O)N[C@H]4C(O)O[C@H](CO)[C@H](O)[C@@H]4O[C@@H]4O[C@H](C(=O)O)[C@@H](O)[C@H](O)[C@H]4O)cc3C2(C)C)N(CCCCS(=O)(=O)[O-])c2ccccc21.[Na+] (some centres unmarked)', 746);

Source: patent US6329531A
